Values compiled from patent US20230277698A1.

- System: LNCaP tumor-bearing CB17-SCID mice
- protocol notes: Biodistribution studies 24 h p.i.
- Type: in vivo
- assay setup: 177Lu-labelled, mean±SD, n=4-5
metric name: biodistribution: intestine (% ID/g)
Give your result in % ID/g as a bare value.

Solved entries:
{"columns": ["molecule", "system under test", "metric name", "endpoint result"],
 "data": [
  ["O=C(O)CC[C@H](NC(=O)N[C@@H](CCCCNC(=O)[C@H](Cc1ccc2ccccc2c1)NC(=O)[C@H]1CC[C@H](CNC(=O)CN2CCN(CC(=O)O)CCN(CC(=O)O)CCN(CC(=O)O)CC2)CC1)C(=O)O)C(=O)O [PSMA-617, reference compound]", "LNCaP tumor-bearing CB17-SCID mice", "biodistribution: intestine", 0.12],
  ["CC(C)(C)[Si](O)(c1ccc(C(=O)NC[C@@H](NC(=O)CC[C@@H](C(=O)O)N2CCN(CC(=O)O)CCN(CC(=O)O)CCN(CC(=O)O)CC2)C(=O)NCC(=O)N[C@@H](CCCCNC(=O)CCC(=O)NCCC[C@@H](NC(=O)CC[C@H](NC(=O)N[C@@H](CCC(=O)O)C(=O)O)C(=O)O)C(=O)O)C(=O)O)cc1)C(C)(C)C", "LNCaP tumor-bearing CB17-SCID mice", "biodistribution: intestine", 0.43],
  ["CC(C)(C)[Si](O)(c1ccc(C(=O)NC[C@@H](NC(=O)CC[C@@H](C(=O)O)N2CCN(CC(=O)O)CCN(CC(=O)O)CCN(CC(=O)O)CC2)C(=O)N[C@H](CO)C(=O)NCCC(=O)NCCC(=O)NCCC[C@@H](NC(=O)CC[C@H](NC(=O)N[C@@H](CCC(=O)O)C(=O)O)C(=O)O)C(=O)O)cc1)C(C)(C)C", "LNCaP tumor-bearing CB17-SCID mice", "biodistribution: intestine", 0.13],
  ["CC(C)(C)[Si](F)(c1ccc(C(=O)NC[C@@H](NC(=O)CC[C@@H](C(=O)O)N2CCN(CC(=O)O)CCN(CC(=O)O)CCN(CC(=O)O)CC2)C(=O)N[C@H](CCCCNC(=O)CCC(=O)NCCC[C@@H](NC(=O)CC[C@H](NC(=O)N[C@@H](CCC(=O)O)C(=O)O)C(=O)O)C(=O)O)C(=O)O)cc1)C(C)(C)C [rhPSMA-7.3, reference compound]", "LNCaP tumor-bearing CB17-SCID mice", "biodistribution: intestine", 0.12],
  ["CC(C)(C)[Si](O)(c1ccc(C(=O)N[C@H](CCC(=O)NC[C@@H](NC(=O)CC[C@@H](C(=O)O)N2CCN(CC(=O)O)CCN(CC(=O)O)CCN(CC(=O)O)CC2)C(=O)NCCCCCC(=O)NCCC[C@@H](NC(=O)CC[C@H](NC(=O)N[C@@H](CCC(=O)O)C(=O)O)C(=O)O)C(=O)O)C(=O)O)cc1)C(C)(C)C", "LNCaP tumor-bearing CB17-SCID mice", "biodistribution: intestine", 0.08],
  ["CC(C)(C)[Si](O)(c1ccc(C(=O)NC[C@@H](NC(=O)CC[C@@H](C(=O)O)N2CCN(CC(=O)O)CCN(CC(=O)O)CCN(CC(=O)O)CC2)C(=O)N[C@H](CCCCNC(=O)CCC(=O)NCCC[C@@H](NC(=O)CC[C@H](NC(=O)N[C@@H](CCC(=O)O)C(=O)O)C(=O)O)C(=O)O)C(=O)O)cc1)C(C)(C)C", "LNCaP tumor-bearing CB17-SCID mice", "biodistribution: intestine", 0.45],
  ["O=C(O)CC[C@H](NC(=O)N[C@@H](CCCCNC(=O)CCCCCCC(=O)NCCCC[C@@H](NC(=O)[C@@H](Cc1ccccc1)NC(=O)[C@@H](Cc1ccc(O)c(I)c1)NC(=O)CCC(C(=O)O)N1CCN(CC(=O)O)CCN(CC(=O)O)CCN(CC(=O)O)CC1)C(=O)O)C(=O)O)C(=O)O (some centres unmarked) [PSMA I&T, reference compound]", "LNCaP tumor-bearing CB17-SCID mice", "biodistribution: intestine", 0.12]
]}

We now examine a further molecule.
State the recorded biodistribution: intestine for this entry: CC(C)(C)[Si](F)(c1ccc(C(=O)NC[C@@H](NC(=O)CN2CCN(CC(=O)O)CCN(CC(=O)O)CCN(CC(=O)O)CC2)C(=O)N[C@H](CCCCNC(=O)CCC(=O)NCCC[C@@H](NC(=O)CC[C@H](NC(=O)N[C@@H](CCC(=O)O)C(=O)O)C(=O)O)C(=O)O)C(=O)O)cc1)C(C)(C)C [rhPSMA-10, reference compound] 0.11
